# pIC50 per record follows
- STUDY TARGET: AAK1 (Homo sapiens)
- Construct: HA; expressed in transfected cells; host or cells: HEK293F
- EXPERIMENT DESCRIPTION: HEK281 cell-based assay (phospho-mu2 Western blot in transfected HEK293F cells)
- SETTINGS: 3 hours incubation, read-out: CBA IC50
pIC50: −log10 of the molar value.

Param item = NCCCOc1ccc(-c2cnc3ccc(NCCCc4ccccc4)nn23)cc1 ; retrieve measured pIC50.
≥ 7.00

###

- STUDY TARGET: AAK1 (Homo sapiens, UniProt Q2M2I8)
- Construct: HA; expressed in transfected cells; host or cells: HEK293F
- Sequence (Q2M2I8 1-863 isoform Q2M2I8-2): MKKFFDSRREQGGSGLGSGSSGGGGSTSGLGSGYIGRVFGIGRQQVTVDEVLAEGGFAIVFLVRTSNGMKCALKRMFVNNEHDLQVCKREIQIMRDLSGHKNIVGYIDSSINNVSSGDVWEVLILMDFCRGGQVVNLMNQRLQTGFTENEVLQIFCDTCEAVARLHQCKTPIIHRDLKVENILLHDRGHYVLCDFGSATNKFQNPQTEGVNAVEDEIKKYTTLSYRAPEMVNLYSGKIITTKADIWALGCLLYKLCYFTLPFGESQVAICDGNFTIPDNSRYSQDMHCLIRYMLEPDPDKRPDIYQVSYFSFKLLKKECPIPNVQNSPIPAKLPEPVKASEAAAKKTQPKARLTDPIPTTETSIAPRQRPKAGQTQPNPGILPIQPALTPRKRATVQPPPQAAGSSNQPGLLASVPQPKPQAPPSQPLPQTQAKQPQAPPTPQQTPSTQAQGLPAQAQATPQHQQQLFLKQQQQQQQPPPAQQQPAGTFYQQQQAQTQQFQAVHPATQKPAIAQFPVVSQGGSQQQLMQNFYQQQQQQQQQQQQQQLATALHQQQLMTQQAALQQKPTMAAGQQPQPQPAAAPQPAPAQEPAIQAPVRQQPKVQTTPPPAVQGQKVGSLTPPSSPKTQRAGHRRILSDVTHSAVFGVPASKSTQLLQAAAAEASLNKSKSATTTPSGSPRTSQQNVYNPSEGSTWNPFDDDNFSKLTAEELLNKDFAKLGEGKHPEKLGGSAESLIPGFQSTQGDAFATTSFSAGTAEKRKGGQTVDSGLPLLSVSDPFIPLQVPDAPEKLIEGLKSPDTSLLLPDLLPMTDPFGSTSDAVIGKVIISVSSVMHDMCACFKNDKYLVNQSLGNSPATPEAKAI
- EXPERIMENT DESCRIPTION: HEK281 cell-based assay (phospho-mu2 Western blot in transfected HEK293F cells)
- SETTINGS: 3 hours incubation, read-out: CBA IC50
pIC50: −log10 of the molar value.
TEST READOUT: pIC50

Example results:
# SMILES STR, STUDY TARGET, pIC50
data = [
    ("COc1cnccc1-c1cnc2ccc(NCCN3CCN(C(C)(C)C)C3=O)nn12", "AAK1 (Homo sapiens, UniProt Q2M2I8)", "≥ 7.00"),
    ("COc1ccccc1-c1cnc2ccc(NC[C@@H]3CCCN3C(=O)NC(C)(C)C)nn12", "AAK1 (Homo sapiens, UniProt Q2M2I8)", "≥ 7.00"),
]

Param item = CC(C)(C)CC(=O)N1CCN(c2ccc3ncc(-c4ccccc4)n3n2)CC1 ; retrieve measured pIC50.
≥ 7.00

Param item = CC(C)CC(=O)N1CCC[C@H]1CNc1ccc2ncc(-c3cccc(F)c3)n2n1 ; retrieve measured pIC50.
≥ 8.00

Param item = COc1cnccc1-c1cnc2ccc(NCCOC(C)C)nn12 ; retrieve measured pIC50.
≥ 8.00

Param item = CNC(=O)c1ccc(-c2cnc3ccc(NCCN(C)C(=O)OCC(C)C)nn23)cc1 ; retrieve measured pIC50.
≥ 7.00

Param item = COc1cnccc1-c1cnc2ccc(NCCN(C(=O)OC(C)(C)C)C(C)C)nn12 ; retrieve measured pIC50.
≥ 7.00

Param item = COc1ncccc1-c1cnc2ccc(N3CC[C@H](N(C)C(=O)OCC(F)(F)F)C3)nn12 ; retrieve measured pIC50.
≥ 7.00

Param item = COc1ccc(F)cc1-c1cnc2ccc(N3CC[C@H](N(C)C(=O)OC(C)C)C3)nn12 ; retrieve measured pIC50.
≥ 8.00

The reported measurements were obtained from patent US8969565B2.
